These measurements were taken from ChEMBL document CHEMBL3580554.

Species: Rattus norvegicus
test-details: Inhibition of [3H]BTX binding to sodium channel site 2 in rat cerebral cortex synaptosomes at 1 uM incubated for 60 mins by scintillation counting based radioligand displacement assay
Assay type: subcellular
// inhibition lookup, one value per entry
The number alone won't do; follow it with the unit.

> print(dat)
                                   compound    endpoint  observed.result
1  CCC(C(=O)N1CCN(c2cccc(C(F)(F)F)c2)CC1)N1C(=O)CCC1=O (racemic)  inhibition             8.4%
2  CC(C(=O)N1CCN(c2cccc(C(F)(F)F)c2)CC1)N1C(=O)CCC1=O (racemic)  inhibition             3.5%
3              NC(=O)N1c2ccccc2C=Cc2ccccc21  inhibition             2.7%

Next compound, please.
Enquiry: For the compound COCC(C(=O)N1CCN(c2cccc(C(F)(F)F)c2)CC1)N1C(=O)CCC1=O (racemic) , what inhibition is on record?
Return: 5.7%
